Tested on: U2OS
Assay: Incucyte cell viability with U2OS; further: filed as whole numbers so only -1 and 0 and 1 occur
Assay type: toxicity, cell-based
Details: human, 24 h, 10 µM, compound concentration 10 uM, replicate number 2, timepoint 24 hours
property-measured: Growth Rate
Hey, just send me the number, nothing else.

Sample answers from the record:
State its Growth Rate: CNC(=O)Nc1ccc(-c2nc(N3CC4CCC(C3)O4)c3cnn(C4CCC5(CC4)OCCO5)c3n2)cc1
1

State its Growth Rate: O=C(O)C1CN(Cc2ccc(OCc3ccc(Cl)c(Cl)c3)cc2)C1
0

State its Growth Rate: C[C@H](c1ccc(F)cc1)N(Cc1cccc(C(=O)O)c1)C(=O)c1cnc2ccccc2c1
1

State its Growth Rate: O=C(O)CC/C=C\C[C@@H]1CO[C@H](c2ccccc2Cl)O[C@@H]1c1ccccc1O
0

Others:
State its Growth Rate: Cc1ccc2c(c1)c1c(n2CCc2ccc(C)nc2)CCN(C)C1 [LATREPIRDINE]
0

Value source: ChEMBL document CHEMBL4689842
